Biological target: NR2B (Rattus norvegicus (Rat), UniProt Q00960)
Sequence (Q00960 27-1482, other chains not shown): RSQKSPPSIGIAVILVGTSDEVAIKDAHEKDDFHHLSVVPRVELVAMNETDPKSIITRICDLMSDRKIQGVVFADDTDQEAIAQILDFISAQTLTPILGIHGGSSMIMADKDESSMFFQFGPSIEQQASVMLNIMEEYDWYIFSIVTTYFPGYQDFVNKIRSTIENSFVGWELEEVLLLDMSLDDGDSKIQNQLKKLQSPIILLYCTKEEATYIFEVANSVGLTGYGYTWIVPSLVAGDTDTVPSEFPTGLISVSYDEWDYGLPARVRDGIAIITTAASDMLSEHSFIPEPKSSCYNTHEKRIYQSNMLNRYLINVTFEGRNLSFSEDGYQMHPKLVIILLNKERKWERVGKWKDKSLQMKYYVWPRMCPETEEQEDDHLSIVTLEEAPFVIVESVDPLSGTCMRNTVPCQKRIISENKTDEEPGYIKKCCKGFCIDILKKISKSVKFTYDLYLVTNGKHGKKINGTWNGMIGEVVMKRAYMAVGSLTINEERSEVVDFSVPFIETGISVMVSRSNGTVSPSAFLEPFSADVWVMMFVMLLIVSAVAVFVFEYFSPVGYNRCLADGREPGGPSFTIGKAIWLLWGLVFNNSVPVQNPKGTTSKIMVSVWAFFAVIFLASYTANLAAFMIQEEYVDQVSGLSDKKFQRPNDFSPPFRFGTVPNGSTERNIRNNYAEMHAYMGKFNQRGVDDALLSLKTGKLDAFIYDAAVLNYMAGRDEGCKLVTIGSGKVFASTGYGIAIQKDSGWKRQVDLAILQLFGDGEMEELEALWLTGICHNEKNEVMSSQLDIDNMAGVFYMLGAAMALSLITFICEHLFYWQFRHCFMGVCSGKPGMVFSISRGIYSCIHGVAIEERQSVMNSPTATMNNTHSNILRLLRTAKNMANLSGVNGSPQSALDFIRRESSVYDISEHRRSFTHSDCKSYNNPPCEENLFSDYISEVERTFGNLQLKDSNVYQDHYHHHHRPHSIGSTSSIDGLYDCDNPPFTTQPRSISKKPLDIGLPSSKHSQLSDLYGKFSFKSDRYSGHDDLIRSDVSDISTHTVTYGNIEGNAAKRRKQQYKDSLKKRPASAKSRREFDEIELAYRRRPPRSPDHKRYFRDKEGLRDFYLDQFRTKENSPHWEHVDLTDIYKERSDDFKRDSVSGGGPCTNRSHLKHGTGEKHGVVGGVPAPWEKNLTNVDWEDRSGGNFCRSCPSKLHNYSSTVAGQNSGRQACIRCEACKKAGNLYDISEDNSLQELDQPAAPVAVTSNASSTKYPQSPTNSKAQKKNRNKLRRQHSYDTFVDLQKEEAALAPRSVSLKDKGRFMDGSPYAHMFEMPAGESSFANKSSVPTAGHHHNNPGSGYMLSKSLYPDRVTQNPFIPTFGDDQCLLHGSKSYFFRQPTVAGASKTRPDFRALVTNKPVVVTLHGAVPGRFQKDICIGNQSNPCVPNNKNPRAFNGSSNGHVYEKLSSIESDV
Test: NR2B rat cortical neuron calcium influx assay
Type: cell-based
Details: rat cortical neurons, glutamate and glycine stimulated calcium influx
// values below are reported pIC50
Conceptually, pIC50 converts a concentration in mol/L into minus its log10.

Field: example entries. Status: answers known.
O=C1CCc2cc([C@H](O)CN3C[C@H]4C[C@H](Oc5ccccc5)C[C@@]4(O)C3)ccc2N1    8.80
O=c1ccc2cc([C@H](O)CN3C[C@H]4C[C@H](Oc5ccccc5)C[C@@]4(O)C3)ccc2[nH]1 (single isomer, unassigned)    9.24
O=C1CCc2cc([C@@H](O)CN3C[C@H]4C[C@H](Oc5ccccc5F)[C@H](O)[C@@]4(O)C3)cc(F)c2N1 (single isomer, unassigned) [Example 29A]    6.89
O=C1CCc2cc([C@@H](O)CN3C[C@@H]4C[C@@H](Oc5c(F)cccc5F)C[C@]4(O)C3)ccc2N1 (single isomer, unassigned) [Example 27C]    8.77
O=C1CCc2cc(C(O)CN3C[C@H]4C[C@H](Oc5ccccc5F)C[C@@]4(O)C3)ccc2N1 (single isomer, unassigned)    9.21

// query Given the compound O=C1CCc2cc([C@@H](O)CN3C[C@@H]4C[C@@H](Oc5cc(F)ccc5F)C[C@]4(O)C3)ccc2N1 (single isomer, unassigned) [Example 26C] , write its reported pIC50.
// result 8.89

// query Look up pIC50 of O=C1CCCc2cc([C@H](O)CN3C[C@H]4C[C@H](Oc5ccccc5F)C[C@@]4(O)C3)ccc2N1 (single isomer, unassigned) [Example 43B] and report it.
// result 8.92
